EC50 hGLP1 R (cAMP, HEK293 cells expressing the GLP-1R) reference
- target under test: human GLP-1 receptor (human, UniProt P43220 24-463)
- assay text: cell-based or functional assay
Starred links: 1 amine or outer side, 2 acyl side, 3 side chain; linkers in the order of their positions; H or OH if unused. Non-standard residues stand in square brackets, D forms with d. Groups on a side chain read outwards from the residue. *: point of attachment. C20 diacid = O=C(O)CCCCCCCCCCCCCCCCCCC(=O)*; γGlu = O=C(O)[C@H](CCC(=O)[*:2])N[*:1]; Aib = CC(C)(N)C(=O)O
readout: EC50 hGLP1 R (cAMP, HEK293 cells expressing the GLP-1R)

| binder | test result |
| --- | --- |
| H-Y[Aib]EGTFISDYSIELDKIAAQDFVNWLLAGPSSGAPPPSK([Peg3-Peg3-γGlu-C20 diacid])-NH2 [Compound 16] | > 10 nM |
| H-Y[Aib]EGTFISDYSIELDKK([Peg3-Peg3-γGlu-C20 diacid])AAQDFIEWLLAGPSSGAPPPS-NH2 [Compound 32] | > 100 nM |
| H-Y[Aib]EGTFISDYSIELDKK([Peg3-Peg3-γGlu-C20 diacid])HQQDFVNYLLAQGPSSGAPPPS-NH2 [Compound 8] | > 10 nM |
